For each record, write down the corresponding Ki.
# System Name: human neprilysin (EC 3.4.24.11; NEP) (Homo sapiens (Human))
# Sequence (P08473 52-750): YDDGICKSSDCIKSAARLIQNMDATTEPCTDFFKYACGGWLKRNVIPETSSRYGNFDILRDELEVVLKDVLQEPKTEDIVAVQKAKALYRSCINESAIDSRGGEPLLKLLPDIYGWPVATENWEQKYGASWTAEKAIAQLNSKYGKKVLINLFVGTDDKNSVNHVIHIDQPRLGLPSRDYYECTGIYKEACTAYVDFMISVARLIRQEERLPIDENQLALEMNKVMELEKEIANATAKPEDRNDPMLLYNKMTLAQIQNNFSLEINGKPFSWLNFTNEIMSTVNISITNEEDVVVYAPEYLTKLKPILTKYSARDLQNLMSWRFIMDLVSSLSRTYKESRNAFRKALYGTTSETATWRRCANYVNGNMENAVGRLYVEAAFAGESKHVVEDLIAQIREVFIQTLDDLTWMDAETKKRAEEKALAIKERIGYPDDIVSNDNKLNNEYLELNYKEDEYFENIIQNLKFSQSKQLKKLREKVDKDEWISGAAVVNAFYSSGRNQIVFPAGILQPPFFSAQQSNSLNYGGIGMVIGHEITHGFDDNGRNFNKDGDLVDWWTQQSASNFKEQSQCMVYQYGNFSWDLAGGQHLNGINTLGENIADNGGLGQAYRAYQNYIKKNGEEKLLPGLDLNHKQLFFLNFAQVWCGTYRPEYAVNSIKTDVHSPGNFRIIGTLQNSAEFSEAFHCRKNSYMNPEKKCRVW
# Protocol Description: In vitro enzyme inhibition assay at human NEP (fluorogenic peptide substrate)
# Assay type: biochemical
# Test Context: pKi values at human NEP, recombinant human NEP

{"Compound": "Cc1cc(C(=O)N[C@H](Cc2ccc(-c3ccccc3)cc2)CC(O)C(=O)O)n[nH]1 (stereo partly shown)", "Result": "12.6 to 100 nM"}

Hello, I would appreciate it if you could give Ki for each entry below.
1. O=C(O)CNC(=O)c1cc(C(=O)N[C@H](Cc2ccc(-c3ccccc3)cc2)CC(O)C(=O)O)[nH]n1 (stereo partly shown)
2. CCCc1cc(C(=O)N[C@H](Cc2ccc(-c3ccccc3)cc2)CC(O)C(=O)O)[nH]n1 (stereo partly shown)
3. Cc1nc2ccc(C(=O)N[C@H](Cc3ccc(-c4ccccc4)cc3)CC(O)C(=O)O)cc2o1 (stereo partly shown)
4. O=C(N[C@H](Cc1ccc(-c2ccccc2)cc1)CC(O)C(=O)O)c1cc(-c2ccc(F)cc2)n[nH]1 (stereo partly shown)

## Output
["1.26 to 10 nM", "12.6 to 100 nM", "12.6 to 100 nM", "1.26 to 10 nM"]

For each entry beneath this line, provide reported Ki.
1. O=C(N[C@H](Cc1ccc(-c2ccccc2)cc1)CC(O)C(=O)O)c1cnc2[nH]cnc2c1 (stereo partly shown)
2. O=C(NCCc1cnc[nH]1)c1cc(C(=O)N[C@H](Cc2ccc(-c3ccccc3)cc2)C[C@@H](O)C(=O)O)[nH]n1

## Output
1: 12.6 to 100 nM; 2: 12.6 to 100 nM

Provide reported Ki for each item, in the same order as listed.
1. O=C(N[C@H](Cc1ccc(-c2ccccc2)cc1)CC(O)C(=O)O)c1cc(C(=O)O)n(Cc2ccc(Cl)cc2)n1 (stereo partly shown)
2. O=C(NC1CC1)c1cc(C(=O)N[C@H](Cc2ccc(-c3ccccc3)cc2)C[C@H](O)C(=O)O)[nH]n1
3. O=C(N[C@H](Cc1ccc(-c2ccccc2)cc1)CC(O)C(=O)O)c1ccc2[nH]nnc2c1 (stereo partly shown)
4. O=C(N[C@H](Cc1ccc(-c2ccccc2)cc1)CC(O)C(=O)O)c1cc(C2CC2)n[nH]1 (stereo partly shown)
5. O=C(N[C@H](Cc1ccc(-c2ccccc2)cc1)CC(O)C(=O)O)c1cc(-c2ccc(Cl)cc2)[nH]n1 (stereo partly shown)
6. CN(C)CCNC(=O)c1cc(C(=O)N[C@H](Cc2ccc(-c3ccccc3)cc2)CC(O)C(=O)O)[nH]n1 (stereo partly shown)

## Output
1. 1.26 to 10 nM
2. 12.6 to 100 nM
3. 1.26 to 10 nM
4. 12.6 to 100 nM
5. 1.26 to 10 nM
6. 1.26 to 10 nM

List reported Ki for each of these compounds:
1. O=C(N[C@H](Cc1ccc(-c2ccccc2)cc1)CC(O)C(=O)O)c1cc(C(=O)O)n(Cc2ccc(Cl)c(SC(F)(F)F)c2)n1 (stereo partly shown)
2. O=C(N[C@H](Cc1ccc(-c2ccccc2)cc1)CC(O)C(=O)O)c1cc[nH]n1 (stereo partly shown)
3. COc1ccccc1C(=O)Nc1cc(C(=O)N[C@H](Cc2ccc(-c3ccccc3)cc2)C[C@@H](O)C(=O)O)n[nH]1
4. O=C(N[C@H](Cc1ccc(-c2ccccc2)cc1)CC(O)C(=O)O)c1cc(C(=O)O)n(Cc2c(F)ccc(Cl)c2F)n1 (stereo partly shown)
5. O=C(N[C@H](Cc1ccc(-c2ccccc2)cc1)CC(O)C(=O)O)c1ccc2[nH]nnc2c1Cl (stereo partly shown)
6. Cn1nc(C(=O)N[C@H](Cc2ccc(-c3ccccc3)cc2)CC(O)C(=O)O)cc1-c1ccccc1 (stereo partly shown)

## Output
1: 12.6 to 100 nM; 2: 12.6 to 100 nM; 3: 1.26 to 10 nM; 4: 1.26 to 10 nM; 5: 1.26 to 10 nM; 6: 1.26 to 10 nM

Give me Ki for each of these compounds, listed below.
1. O=C(N[C@H](Cc1ccc(-c2ccccc2)cc1)CC(O)C(=O)O)c1cc(C(=O)O)n(Cc2ccccc2Cl)n1 (stereo partly shown)
2. CCCNC(=O)c1cc(C(=O)N[C@H](Cc2ccc(-c3ccccc3)cc2)CC(O)C(=O)O)[nH]n1 (stereo partly shown)
3. Cc1nc(C(=O)N[C@H](Cc2ccc(-c3ccccc3)cc2)CC(O)C(=O)O)nn1-c1ccc(Cl)cc1 (stereo partly shown)

## Output
1. 1.26 to 10 nM
2. ≤ 1 nM
3. 12.6 to 100 nM

Quick batch: Ki for everything below.
1. O=C(N[C@H](Cc1ccc(-c2ccccc2)cc1)CC(O)C(=O)O)c1cc(C(=O)O)n(Cc2c(F)cc(Cl)cc2F)n1 (stereo partly shown)
2. O=C(N[C@H](Cc1ccc(-c2ccccc2)cc1)CC(O)C(=O)O)c1cc(-c2ccccc2C(F)(F)F)n[nH]1 (stereo partly shown)
3. O=C(N[C@H](Cc1ccc(-c2ccccc2)cc1)C[C@@H](O)C(=O)O)c1cc2nn1CCOc1ccccc1-2
4. O=C(N[C@H](Cc1ccc(-c2ccccc2)cc1)CC(O)C(=O)O)c1cc(C(=O)N2CCOCC2)n[nH]1 (stereo partly shown)
5. O=C(O)c1ccc(C(=O)N[C@H](Cc2ccc(-c3ccccc3)cc2)CC(O)C(=O)O)s1 (stereo partly shown)

## Output
["1.26 to 10 nM", "12.6 to 100 nM", "12.6 to 100 nM", "1.26 to 10 nM", "1.26 to 10 nM"]

## Input Which Ki is listed for `O=C(N[C@H](Cc1ccc(-c2ccccc2)cc1)C[C@@H](O)C(=O)O)c1cc2n(n1)COc1ccccc1-2` ?
## Output 1.26 to 10 nM
